Reference source: patent US20260116910A1

Below, each entry is listed with its recorded MRGPRX4 activation, fluorescence change (dF/F0), Average.
target: UniProt:Q96LA9; experiment: MRGPRX4 activation, Fluo-8 Ca2+ FLIPR assay in HEK293T cells stably expressing MRGPRX4; type: cell-based; details: Conc. (Log[M]) −6
measurement-kind: MRGPRX4 activation, fluorescence change (dF/F0), Average

{"columns": ["compound", "meas-value"],
 "data": [
  ["CC(C[C@@H](C)[C@H]1CC[C@H]2[C@@H]3CC[C@@H]4CCCC[C@]4(C)[C@H]3CC[C@]12C)C(=O)O (stereo partly drawn) [2-1]", "−0.095"],
  ["CC[C@H]1[C@@H](OC(=O)c2cccc(I)c2)[C@@H]2[C@H](CC[C@]3(C)C([C@H](C)CCC(=O)OC)=CC[C@@H]23)[C@@]2(C)CCCC[C@@H]12 [3-1]", "−0.017"],
  ["COC(=O)CC[C@@H](C)[C@H]1CC[C@H]2[C@@H]3/C(=N\\OC(C)(C)C(=O)O)C[C@@H]4C[C@H](OC(C)=O)CC[C@]4(C)[C@H]3CC[C@]12C [1-3]", "−0.008"],
  ["C[C@H](CCCC(=O)O)[C@H]1CC[C@H]2[C@@H]3CC[C@@H]4C[C@H](O)CC[C@]4(C)[C@H]3C[C@H](O)[C@]12C [RC-2]", 0.017],
  ["CC[C@H]1[C@@H](O)[C@@H]2[C@H](CC[C@]3(C)[C@@H]([C@H](C)CCC(=O)NS(=O)(=O)CC)CC[C@@H]23)[C@@]2(C)CCCC[C@@H]12 [4-2]", "−0.006"],
  ["CC[C@H]1[C@@H](OC(=O)c2cccc(I)c2)[C@H]2[C@@H]3[C@@H](O)C=C([C@H](C)CCC(=O)OC)[C@@]3(C)CC[C@@H]2[C@@]2(C)CCCC[C@@H]12 [3-3]", "−0.015"],
  ["CC[C@H]1[C@@H](O)[C@@H]2[C@H](CC[C@]3(C)[C@@H]([C@H](C)CCC(=O)O)CC[C@@H]23)[C@@]2(C)CCCC[C@@H]12 [compound 10]", "−0.064"],
  ["C[C@H](CCC(=O)O)[C@H]1CC[C@H]2[C@@H]3CC[C@@H]4CC(=O)CC[C@]4(C)[C@H]3CC[C@]12C [compound 16]", "−0.010"],
  ["C[C@H](CC(=O)O)[C@H]1CC[C@H]2[C@@H]3CC[C@@H]4C[C@H](O)CC[C@]4(C)[C@H]3C[C@H](O)[C@]12C [RC-1]", "−0.015"],
  ["CC[C@H]1[C@@H](O)[C@@H]2[C@H](CC[C@]3(C)[C@@H]([C@H](C)CCNC(=O)NS(=O)(=O)c4cccc(Cl)c4)CC[C@@H]23)[C@@]2(C)CCCC[C@@H]12 [5-7]", 0.020],
  ["CC[C@H]1[C@@H](O)[C@@H]2[C@H](CC[C@]3(C)[C@@H]([C@H](C)CCNC(=O)NS(=O)(=O)c4ccc(C)cc4)CC[C@@H]23)[C@@]2(C)CCCC[C@@H]12 [5-8]", 0.020],
  ["CC[C@H]1[C@@H](O)[C@@H]2[C@H](CC[C@]3(C)[C@@H]([C@H](C)CCNC(=O)NS(=O)(=O)c4cc(F)ccc4F)CC[C@@H]23)[C@@]2(C)CC[C@H](F)C[C@@H]12 [9-2]", "−0.030"]
]}

---

Below, each entry is listed with its recorded EC50.
target: MRGPRX4 (Homo sapiens, UniProt Q96LA9); assay: MRGPRX4 activation, Fluo-8 Ca2+ FLIPR assay in HEK293T cells stably expressing MRGPRX4; assay type: cell-based; details: MRGPRX4 activation, Ca2+ fluorescence; no activation in tested range reported as III; read-out: Activity (EC50 μM)
Sequence (Q96LA9 whole entry): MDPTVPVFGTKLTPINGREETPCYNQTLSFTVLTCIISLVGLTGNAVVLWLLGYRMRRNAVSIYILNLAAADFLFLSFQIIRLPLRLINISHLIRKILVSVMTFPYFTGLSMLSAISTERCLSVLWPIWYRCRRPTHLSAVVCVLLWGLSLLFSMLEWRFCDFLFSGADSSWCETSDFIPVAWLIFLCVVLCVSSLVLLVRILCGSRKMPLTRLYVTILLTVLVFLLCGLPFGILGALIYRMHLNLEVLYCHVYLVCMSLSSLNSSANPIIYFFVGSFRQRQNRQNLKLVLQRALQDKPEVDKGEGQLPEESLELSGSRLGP

{"columns": ["compound", "EC50"],
 "data": [
  ["CC[C@H]1[C@@H](O)[C@@H]2[C@H](CC[C@]3(C)[C@@H]([C@H](C)CCNC(=O)NS(=O)(=O)c4ccc(C(C)(C)CO)cc4)CC[C@@H]23)[C@@]2(C)CCCC[C@@H]12 [5-2]", "> 100 µM"],
  ["CC[C@H]1[C@@H](O)[C@@H]2[C@H](CC[C@]3(C)[C@@H]([C@H](C)CCNC(=O)NS(=O)(=O)c4ccc(C(C)(C)CN)cc4)CC[C@@H]23)[C@@]2(C)CCCC[C@@H]12 [5-18]", "> 100 µM"],
  ["CC[C@H]1[C@@H](O)[C@@H]2[C@H](CC[C@]3(C)[C@@H]([C@H](C)CCNC(=O)NS(=O)(=O)c4cccs4)CC[C@@H]23)[C@@]2(C)CCC(F)(F)C[C@@H]12 [10-4]", "> 100 µM"],
  ["CC[C@H]1[C@@H](O)[C@@H]2[C@H](CC[C@]3(C)[C@@H]([C@H](C)CCC(=O)NS(=O)(=O)C(C)(C)C)CC[C@@H]23)[C@@]2(C)CCCC[C@@H]12 [4-1]", "> 100 µM"],
  ["CC[C@H]1[C@@H](O)[C@@H]2[C@H](CC[C@]3(C)[C@@H]([C@H](C)CCO)CC[C@@H]23)[C@@]2(C)CCCC[C@@H]12 [2-5]", "> 100 µM"],
  ["CCCCS(=O)(=O)NC(=O)NCC[C@@H](C)[C@H]1CC[C@H]2[C@@H]3[C@H](O)[C@H](CC)[C@@H]4CCCC[C@]4(C)[C@H]3CC[C@]12C [5-14]", "> 100 µM"],
  ["CC[C@H]1[C@@H](O)[C@H]2[C@@H]3CC[C@](C)([C@H](C)CCNC(=O)NS(=O)(=O)C[C@]45CCC(CC4=O)C5(C)C)[C@H]3CC[C@@H]2[C@@]2(C)CC[C@H](F)C[C@@H]12 [9-5]", "> 100 µM"],
  ["CC[C@H]1[C@@H](O)[C@@H]2[C@H](CC[C@]3(C)[C@@H]([C@H](C)CCNC(=O)NS(=O)(=O)N(C)C)CC[C@@H]23)[C@@]2(C)CCCC[C@@H]12 [5-15]", "> 100 µM"],
  ["COC(=O)CC[C@@H](C)[C@H]1CC[C@H]2[C@@H]3/C(=N\\OC(C)(C)C(=O)O)C[C@@H]4C[C@H](OC(C)=O)CC[C@]4(C)[C@H]3CC[C@]12C [1-3]", "< 50 µM"],
  ["CC(C[C@@H](C)[C@H]1CC[C@H]2[C@@H]3CC[C@@H]4CCCC[C@]4(C)[C@H]3CC[C@]12C)C(=O)O (some centres unmarked) [2-1]", "> 100 µM"],
  ["[2H]C1CC[C@@]2(C)[C@@H](C1)[C@@H](CC)[C@@H](O)[C@@H]1[C@@H]2CC[C@]2(C)[C@@H]([C@H](C)CCC(=O)O)CC[C@@H]12 (some centres unmarked) [13-1]", "> 100 µM"],
  ["CC[C@H]1[C@@H](OC(=O)c2cccc(I)c2)[C@@H]2[C@H](CC[C@]3(C)C([C@H](C)CCC(=O)OC)=CC(=O)[C@@H]23)[C@@]2(C)CCCC[C@@H]12 [3-2]", "> 100 µM"],
  ["C[C@H](CC/C=C/C(=O)O)[C@H]1CC[C@H]2[C@@H]3CC[C@@H]4C[C@H](O)CC[C@]4(C)[C@H]3CC[C@]12C [1-7]", "< 50 µM"],
  ["CC[C@H]1[C@@H](O)[C@@H]2[C@H](CC[C@]3(C)[C@@H]([C@H](C)CCCOS(=O)(=O)O)CC[C@@H]23)[C@@]2(C)CCCC[C@@H]12 [2-6]", "50 to 100 µM"]
]}

---

target: UniProtKB Q96LA9; test: MRGPRX4 activation, Fluo-8 Ca2+ FLIPR assay in HEK293T cells stably expressing MRGPRX4; assay type: cell-based; conditions: Conc. (Log[M]) −5
# label = t if MRGPRX4 activation, fluorescence change (dF/F0), Average >= -0.03 else f

{"columns": ["molecule", "tested-target", "qualitative-label"],
 "data": [
  ["CC[C@H]1[C@@H](O)[C@@H]2[C@H](CC[C@]3(C)[C@@H]([C@H](C)CCNC(=O)NS(=O)(=O)C4CCC(C)(C)CC4)CC[C@@H]23)[C@@]2(C)CCCC[C@@H]12", "UniProtKB Q96LA9", "t"],
  ["CC[C@H]1[C@@H](O)[C@@H]2[C@H](CC[C@]3(C)[C@@H]([C@H](C)CCNC(=O)NS(=O)(=O)c4cccc(Cl)c4)CC[C@@H]23)[C@@]2(C)CCCC[C@@H]12", "UniProtKB Q96LA9", "t"],
  ["CC[C@H]1[C@@H](O)[C@@H]2[C@H](CC[C@]3(C)[C@@H]([C@H](C)CO)CC[C@@H]23)[C@@]2(C)CCCC[C@@H]12", "UniProtKB Q96LA9", "f"],
  ["C[C@H](CCC(=O)O)[C@H]1CC[C@H]2[C@@H]3CC[C@@H]4C[C@@H](O)CC[C@]4(C)[C@H]3C[C@H](O)[C@]12C", "UniProtKB Q96LA9", "t"],
  ["CC[C@H]1[C@@H](O)[C@@H]2[C@H](CC[C@]3(C)[C@@H]([C@H](C)CCNC(=O)NS(=O)(=O)N4CCCC4)CC[C@@H]23)[C@@]2(C)CCCC[C@@H]12", "UniProtKB Q96LA9", "t"],
  ["C[C@H](CC/C=C/C(=O)O)[C@H]1CC[C@H]2[C@@H]3CC[C@@H]4C[C@H](O)CC[C@]4(C)[C@H]3C[C@H](O)[C@]12C", "UniProtKB Q96LA9", "t"],
  ["C[C@H](CCCO)[C@H]1CC[C@H]2[C@@H]3CC[C@@H]4CCCC[C@]4(C)[C@H]3CC[C@]12C", "UniProtKB Q96LA9", "t"],
  ["CC[C@H]1[C@@H](OC(=O)c2cccc(I)c2)[C@H]2[C@@H]3[C@@H](O)C=C([C@H](C)CCC(=O)OC)[C@@]3(C)CC[C@@H]2[C@@]2(C)CCCC[C@@H]12", "UniProtKB Q96LA9", "f"],
  ["CC[C@H]1[C@@H](OC(=O)c2cccc(I)c2)[C@@H]2[C@H](CC[C@]3(C)[C@@H]([C@H](C)CCC(=O)OC)CC[C@@H]23)[C@@]2(C)CCCC[C@@H]12", "UniProtKB Q96LA9", "f"],
  ["CC[C@H]1[C@@H](O)[C@@H]2[C@H](CC[C@]3(C)[C@@H]([C@H](C)CCNC(=O)NS(=O)(=O)c4ccc(C(C)(C)C(=O)O)cc4)CC[C@@H]23)[C@@]2(C)CCCC[C@@H]12", "UniProtKB Q96LA9", "t"],
  ["CC[C@H]1[C@@H](O)[C@@H]2[C@H](CC[C@]3(C)[C@@H]([C@H](C)CCC(=O)NS(=O)(=O)CC)CC[C@@H]23)[C@@]2(C)CCCC[C@@H]12", "UniProtKB Q96LA9", "t"],
  ["CC[C@H]1[C@@H](O)[C@@H]2[C@H](CC[C@]3(C)[C@@H]([C@H](C)CCC(=O)OC)CC[C@@H]23)[C@@]2(C)CCCC[C@@H]12", "UniProtKB Q96LA9", "t"],
  ["C[C@H](CCC(=O)O)[C@H]1CC[C@H]2[C@@H]3CC[C@@H]4CC(=O)CC[C@]4(C)[C@H]3CC[C@]12C", "UniProtKB Q96LA9", "t"],
  ["C[C@H](CCCC(=O)O)[C@H]1CC[C@H]2[C@@H]3CC[C@@H]4C[C@H](O)CC[C@]4(C)[C@H]3C[C@H](O)[C@]12C", "UniProtKB Q96LA9", "t"],
  ["C[C@H](CC/C=C/C(=O)O)[C@H]1CC[C@H]2[C@@H]3CC[C@@H]4C[C@H](O)CC[C@]4(C)[C@H]3CC[C@]12C", "UniProtKB Q96LA9", "f"],
  ["CC[C@H]1[C@@H](O)[C@@H]2[C@H](CC[C@]3(C)[C@@H]([C@H](C)CCNC(=O)NS(=O)(=O)C4CCCCC4)CC[C@@H]23)[C@@]2(C)CCCC[C@@H]12", "UniProtKB Q96LA9", "t"],
  ["C[C@H](CCCCC(=O)O)[C@H]1CC[C@H]2[C@@H]3CC[C@@H]4C[C@H](O)CC[C@]4(C)[C@H]3CC[C@]12C", "UniProtKB Q96LA9", "t"],
  ["CC(C[C@@H](C)[C@H]1CC[C@H]2[C@@H]3CC[C@@H]4CCCC[C@]4(C)[C@H]3CC[C@]12C)C(=O)O (stereo partly drawn)", "UniProtKB Q96LA9", "f"]
]}
